Listed here are compounds together with their documented %Inh.
- System: MLK3
- assay_conditions: concentration: 1 μM, replicates: in singlicate; n = 1
Report only the number, with the unit % understood.

Measured on MLK3, COc1cc(Nc2nccc(N3CCC(NC(=O)C(C)c4ccc(Cl)cc4)C3)n2)cc(OC)c1OC (stereo not shown) has a documented %Inh of 28

Measured on MLK3, O=C(Nc1n[nH]c2cc(-c3ccccc3F)ccc12)C1CC1 has a documented %Inh of 0

Measured on MLK3, COc1cccc(-n2cnc3c(N)ncnc32)c1 has a documented %Inh of 0

Measured on MLK3, Cc1ccc(-c2ccc3c(ccc4sc5c(c43)NC[C@@H](C)N=C5N(C)C)n2)cn1 has a documented %Inh of 0

Measured on MLK3, COC(=O)c1c(-c2ccccc2)c2cc(Br)ccc2c(=O)n1Cc1ccc(NC(=O)CCC(=O)O)cc1 has a documented %Inh of 0

Measured on MLK3, COc1cc2nccc(Nc3ccc(OCc4ccc(NC(C)=O)cc4)cc3)c2cc1OC.Cl has a documented %Inh of 14

Measured on MLK3, Nc1ncnc2c1ncn2-c1ccc(Cl)cc1 has a documented %Inh of 15

Measured on MLK3, COc1ccc(-n2cnc3c(N)ncnc32)cc1 has a documented %Inh of 20

###

- System: ASK1
- Construct: gene MAP3K5
- assay_conditions: concentration: 1 μM, replicates: in singlicate; n = 1
assay_readout: %Inh (%)
Report only the number, with the unit % understood.

Here is how some molecules turned out for %Inh.
Briefly, %Inh measured for Cc1ccc(Oc2ccc(Nc3ncnc4cc[nH]c34)cc2C)cn1 : 0

Briefly, %Inh measured for O=C(Nc1ccc2c(c1)OCO2)NC1CCN(c2ccnc(NCc3ccc(F)cc3)n2)CC1 : 0

Briefly, %Inh measured for CN1C(=O)C(Nc2cc(Cl)c(O)c(Cl)c2)=C(c2ccc(Cl)cc2)C1=O : 0

Briefly, %Inh measured for COc1cc2nccc(Nc3cccc(Oc4ccccc4)c3)c2cc1OC.Cl : 0

// below: %Inh requested for another molecule
Briefly, %Inh measured for Cc1ccccc1COc1cc(-n2cnc3cc(Cl)ccc32)sc1C(N)=O : 18

###

- Tested on: PLK1;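 further: kd values determined as follow-up on hits from a single-replicate KINOMEscan panel screen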
assay_readout: pKd
The quantity pKd is defined as the negative base-10 logarithm of the molar concentration.

Measured on PLK1, COc1cc2ncn(-c3cc(OCc4ccncc4Br)c(C(N)=O)s3)c2cc1OC has a documented pKd of 8.96

###

- Tested on: MAP3K3
- assay_conditions: concentration: 1 μM, replicates: in singlicate; n = 1
assay_readout: %Inh (%)
Report only the number, with the unit % understood.

Here is how some molecules turned out for %Inh.
Briefly, %Inh measured for COc1cc(Nc2nccc(N3CCC(NC(=O)C4COc5ccccc5O4)C3)n2)cc(OC)c1OC (stereo not drawn) [GSK1379761] : 0

Briefly, %Inh measured for COc1cc2ncn(-c3cc(OCc4ccncc4)c(C(N)=O)s3)c2cc1OC [GSK336313] : 0

---
Briefly, %Inh measured for O=C(NCCNc1ccnc(Nc2ccc(F)cc2)n1)Nc1ccc2c(c1)OCO2 [GSK1379882] : 0

###

Listed here are molecules together with their documented %Inh.
- System: PYK2
- Construct: gene PTK2B
- assay_conditions: concentration: 1 μM, replicates: in singlicate; n = 1
Report only the number, with the unit % understood.

Here is how some molecules turned out for %Inh.
Briefly, %Inh measured for Nc1nc(-c2ccccc2F)c(-c2ccnc3ccccc23)s1 [GW560459] : 0

Briefly, %Inh measured for COc1cc(Nc2nccc(N3CCC(NC(=O)C4COc5ccccc5O4)C3)n2)cc(OC)c1OC (centres unmarked) [GSK1379761] : 18

Briefly, %Inh measured for COc1ccc(CNC(=O)NC2CCN(c3ccnc(Nc4ccc(F)cc4)n3)C2)cc1 (centres unmarked) [GSK1379706] : 1

Briefly, %Inh measured for Cc1ccc(Oc2ccc(Nc3ncnc4cc[nH]c34)cc2C)cn1 : 9

Briefly, %Inh measured for COc1cc2ncn(-c3cc(OCc4ccc(S(C)(=O)=O)cc4)c(C(N)=O)s3)c2cc1OC [GW869979] : 0

Briefly, %Inh measured for COc1cc(Nc2nccc(N3CCC(NC(=O)C(C)c4ccc(Cl)cc4)C3)n2)cc(OC)c1OC (centres unmarked) [GSK1379757] : 10

---
Briefly, %Inh measured for Cc1cccc(-c2cc(-c3c[nH]nc3-c3ccccn3)ccn2)c1 [GW679395] : 0

Briefly, %Inh measured for CCC(=O)c1c(-c2ccccc2)c2cc(Cl)ccc2c(=O)n1Cc1cc(S(C)(=O)=O)n(CC(F)F)n1 : 0
